assayedSystem: AMPK
assayRemarks: AMPK activation, enzyme-linked immunosorbent assay
measurementParameters: EC50 for AMPK activation, ELISA
pEC50: −log10 of the molar value.
resultType: pEC50

Known pEC50 results, listed for orientation:
1) COc1ccc(OC2CCN(C(=O)c3ccc(C(=O)N[C@H]4CC[C@@H](Oc5ccc(C#N)cc5)CC4)nc3)CC2)cc1; > 6.30
2) CC(C)N1CCN(C(=O)c2ccc(C(=O)NC3CCN(Cc4ccc(C#N)cc4)CC3)nc2)CC1; 5.30 to 6.00

Query: Identify pEC50 associated with the molecule "N#Cc1ccc(CN2CCC(NC(=O)c3ccc(C(=O)N4CC(OCc5ccc(F)cc5)C4)cn3)CC2)cc1"
Result: 6.00 to 6.30

Query: Identify pEC50 associated with the molecule "O=C(NC1CCN(Cc2ccccc2)CC1)c1ccc(Nc2cccc(-c3ccccc3)c2)cn1"
Result: 5.30 to 6.00

Query: Identify pEC50 associated with the molecule "N#Cc1ccc(CN2CCC(NC(=O)c3ccc(C(=O)N4CCC(Oc5cccc(C#N)c5)CC4)cn3)CC2)cc1"
Result: > 6.30

Query: Identify pEC50 associated with the molecule "CS(=O)(=O)c1ccc(C(=O)C2CCN(C(=O)c3ccc(C(=O)NC4CCN(Cc5ccc(C#N)cc5)CC4)nc3)CC2)cc1"
Result: > 6.30

Query: Identify pEC50 associated with the molecule "COc1ccc(C(=O)C2CCN(C(=O)c3ccc(C(=O)Nc4ccc(Oc5ccc(S(C)(=O)=O)cc5)nc4)cn3)CC2)cc1"
Result: > 6.30
